- Tested On: PPARa:RXRa (Homo sapiens, UniProt Q07869;P19793 full;full)
- Sequence (Q07869 whole entry, chain 1 of 2): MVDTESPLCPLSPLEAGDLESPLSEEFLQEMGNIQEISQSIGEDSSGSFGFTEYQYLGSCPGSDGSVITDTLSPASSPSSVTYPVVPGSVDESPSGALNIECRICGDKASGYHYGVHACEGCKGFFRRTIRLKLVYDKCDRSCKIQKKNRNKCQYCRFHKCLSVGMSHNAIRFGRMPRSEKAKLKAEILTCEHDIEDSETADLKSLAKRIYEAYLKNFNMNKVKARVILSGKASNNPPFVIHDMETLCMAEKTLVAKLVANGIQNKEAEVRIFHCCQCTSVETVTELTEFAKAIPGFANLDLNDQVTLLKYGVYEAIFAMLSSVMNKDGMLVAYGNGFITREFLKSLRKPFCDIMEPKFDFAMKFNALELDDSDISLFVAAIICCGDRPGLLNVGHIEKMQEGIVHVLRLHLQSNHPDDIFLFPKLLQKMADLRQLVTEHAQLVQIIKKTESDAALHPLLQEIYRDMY
- Sequence (P19793 whole entry, chain 2 of 2): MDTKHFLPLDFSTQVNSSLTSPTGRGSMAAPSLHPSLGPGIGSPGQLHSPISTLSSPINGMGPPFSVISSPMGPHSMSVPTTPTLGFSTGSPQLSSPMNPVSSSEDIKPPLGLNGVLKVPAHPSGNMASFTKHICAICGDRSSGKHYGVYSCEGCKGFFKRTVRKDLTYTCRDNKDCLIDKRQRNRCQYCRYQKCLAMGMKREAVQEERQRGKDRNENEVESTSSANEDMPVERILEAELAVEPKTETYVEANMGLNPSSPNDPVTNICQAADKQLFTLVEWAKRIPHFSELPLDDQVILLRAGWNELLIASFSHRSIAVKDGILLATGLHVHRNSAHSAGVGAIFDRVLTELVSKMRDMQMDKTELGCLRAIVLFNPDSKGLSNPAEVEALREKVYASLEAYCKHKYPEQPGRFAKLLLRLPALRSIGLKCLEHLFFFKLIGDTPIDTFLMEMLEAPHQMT
- Assay Text: no ligand; PBM; 270 nM : 90 nM RXRa; PBS pH 7.4, 2% milk, 0.02% Triton X-100, 1 mM DTT, BSA, 0.4 mg/ml salmon testes DNA
- Condition Label: tags: GST kept;His cleaved; copies: 1;1; label: surface-attached array probe
Quantity Name: binding signal

{"Binder": "NRC3_random_hg19_176_o1 (dsDNA) DNA 1: GCCTGCCTGTGTTGGGACTTTGACTCCACATTTCCCGCGATTGACAGCGTAGAATGAAGG DNA 2: CCTTCATTCTACGCTGTCAATCGCGGGAAATGTGGAGTCAAAGTCCCAACACAGGCAGGC", "Obs Value": "0 PBM z-score against 500 random probes"}
